Assay: PAMPA (parallel artificial membrane permeability assay)
Assay type: in vitro ADME
Conditions: PAMPA; membrane permeation rate (Pe); 50 mM MOPSO buffer pH 6.5 with 5.0% glycocholic acid, 37° C., 18 hours; read-out: iPAMPA Pe
Starred links: 1 amine or outer side, 2 acyl side, 3 side chain; linkers in the order of their positions; H or OH if unused. Positions of bridges follow the written chain, without caps; N, C: chain ends. Non-standard residues stand in square brackets, D forms with d. Residues, ends and D or L forms follow the SMILES beside them. *: point of attachment. Phe(4-(CH2)5CO) = O=C([C@H](Cc1ccc(CCCCCC(=O)[*:3])cc1)N[*:1])[*:2]; Lys(Me2) = CN(C)CCCC[C@H](N)C(=O)O; NMeF = CN[C@@H](Cc1ccccc1)C(=O)O; NMeβAla = CN(CCC(=O)[*:2])[*:1]; NMeL = CN[C@@H](CC(C)C)C(=O)O; NMeV = CN[C@H](C(=O)O)C(C)C; NMeA = CN[C@@H](C)C(=O)O; Piperidide = C1CCN(*)CC1; Sar = CNCC(=O)O
Mark MET only for Papp at 18 hours, 50 µM values smaller than 20 ×10⁻⁶ cm/s; exact matches and larger values are NOT MET.

A selection of reference data follows.
[ask] Papp at 18 hours, 50 µM strictly < 20 ×10⁻⁶ cm/s for this compound? CC(C)C[C@H]1C(=O)N[C@H](C(=O)N2CCCCC2)CC(=O)N[C@H](C)C(=O)N(C)[C@@H](C)C(=O)N(C)[C@@H](Cc2ccccc2)C(=O)N(C)[C@@H](CC(C)C)C(=O)N[C@@H]([C@@H](C)O)C(=O)N1C [DP-739] ([dA][NMeA][NMeF][NMeL]T[NMeL]D-Piperidide; lactam N-7)
[reply] MET

[ask] Hello, I'm reviewing records and need to know if Papp at 18 hours, 50 µM of CC(C)C[C@H]1C(=O)N(C)[C@@H](Cc2ccccc2)C(=O)N(C)[C@@H](C(C)C)C(=O)N[C@@H](Cc2ccccc2)C(=O)N[C@H](C(=O)N(C)[C@@H](Cc2ccccc2)C(=O)N[C@@H](C)C(=O)N2CCCCC2)CC(=O)N(C)[C@@H](C)C(=O)N[C@@H](C(C)C)C(=O)N(C)[C@@H](CC(C)C)C(=O)N[C@@H]([C@@H](C)O)C(=O)NCC(=O)N1C [DP-191] ([NMeA]V[NMeL]TG[NMeL][NMeF][NMeV]FD[NMeF]A-Piperidide; lactam N-10) is below 20 ×10⁻⁶ cm/s. Could you check?
[reply] NOT MET

[ask] Find out if reported Papp at 18 hours, 50 µM for CC[C@H](C)[C@@H]1NC(=O)[C@H](CC(C)C)N(C)C(=O)[C@H](Cc2ccccc2)N(C)C(=O)[C@H](CC(C)C)NC(=O)CCCCCc2ccc(cc2)C[C@@H](C(=O)N2CCCCC2)NC(=O)[C@H](C)N(C)C(=O)[C@H](C)N(C)C(=O)CN(C)C(=O)[C@H]([C@@H](C)O)NC(=O)[C@H](Cc2ccccc2)N(C)C(=O)[C@H](C(C)C)N(C)C1=O [DP-875] (L[NMeF][NMeL]I[NMeV][NMeF]T[Sar][NMeA][NMeA][Phe(4-(CH2)5CO)]-Piperidide; lactam N-11) is less than 20 ×10⁻⁶ cm/s
[reply] MET

[ask] Dear colleague, could you confirm whether Papp at 18 hours, 50 µM of CC(C)C[C@H]1C(=O)N(C)[C@@H](C)C(=O)N(C)[C@@H](Cc2ccccc2)C(=O)N[C@@H]([C@@H](C)O)C(=O)N(C)[C@@H](C)C(=O)N(C)[C@@H](Cc2ccccc2)C(=O)N(C)[C@@H](C)C(=O)N[C@H](C(=O)N(C)[C@@H](Cc2ccccc2)C(=O)N[C@@H](C)C(=O)N2CCCCC2)CC(=O)N(C)CCC(=O)N(C)[C@@H](C)C(=O)N[C@@H](C)C(=O)N1C [DP-346] ([NMeβAla][NMeA]A[NMeL][NMeA][NMeF]T[NMeA][NMeF][NMeA]D[NMeF]A-Piperidide; lactam N-11) falls below 20 ×10⁻⁶ cm/s? Thanks.
[reply] MET

Then this compound:
[ask] Input CC(C)C[C@@H]1NC(=O)[C@H](CCCCN(C)C)NC(=O)[C@H](Cc2ccccc2)N(C)C(=O)[C@H](CC(C)C)NC(=O)[C@H](CC(C)C)N(C)C(=O)[C@H](Cc2ccccc2)NC(=O)[C@H](CC(C)C)N(C)C(=O)[C@H](CC(C)C)N(C)C(=O)[C@H](Cc2ccccc2)NC(=O)CN(C)C(=O)C[C@@H](C(=O)N(C)[C@@H](Cc2ccccc2)C(=O)N[C@@H](C)C(=O)N2CCCCC2)NC1=O [DP-594] ([Sar]F[NMeL][NMeL]F[NMeL]L[NMeF][Lys(Me2)]LD[NMeF]A-Piperidide; lactam N-11) ; condition: Papp at 18 hours, 50 µM strictly below 20 ×10⁻⁶ cm/s. Does it hold?
[reply] MET

* * *

Assay: PAMPA (parallel artificial membrane permeability assay)
Type: in vitro ADME
Conditions: PAMPA; membrane permeation rate (Pe); 50 mM MOPSO buffer pH 6.5 with 5.0% glycocholic acid, 37° C., 18 hours; read-out: iPAMPA Pe
Positions of bridges follow the written chain, without caps; N, C: chain ends. Non-standard residues stand in square brackets, D forms with d. Residues, ends and D or L forms follow the SMILES beside them. ξ: configuration not given here. *: point of attachment. NMeF = CN[C@@H](Cc1ccccc1)C(=O)O; NMeI = CC[C@H](C)[C@H](NC)C(=O)O; NMeL = CN[C@@H](CC(C)C)C(=O)O; ξNMeF = CNC(Cc1ccccc1)C(=O)O; NMeA = CN[C@@H](C)C(=O)O; Piperidide = C1CCN(*)CC1; dNMeA = CN[C@H](C)C(=O)O; β3hA = C[C@H](N)CC(=O)O; Sar = CNCC(=O)O; tBu = CC(C)(C)*
So basically: Papp at 18 hours, 50 µM at 50 ×10⁻⁶ cm/s or higher? That is Yes. Lower than 50 ×10⁻⁶ cm/s? That is No.

Sample answers from the record:
[ask] Does CC(C)C[C@@H]1NC(=O)[C@H]([C@@H](C)O)NC(=O)[C@@H]2CCCN2C(=O)CNC(=O)[C@H](CC(C)C)N(C)C(=O)[C@H](Cc2ccccc2)NC(=O)[C@H](CC(C)C)N(C)C(=O)[C@H](CC(C)C)N(C)C(=O)[C@H](Cc2ccccc2)NC(=O)CN(C)C(=O)C[C@@H](C(=O)N(C)C(Cc2ccccc2)C(=O)N[C@@H](C)C(=O)N2CCCCC2)NC1=O (stereo partly drawn) [DP-185] ([Sar]F[NMeL][NMeL]F[NMeL]GPTLD[ξNMeF]A-Piperidide; lactam N-11) have a reported Papp at 18 hours, 50 µM of at least 50 ×10⁻⁶ cm/s?
[reply] No

[ask] Papp at 18 hours, 50 µM >= 50 ×10⁻⁶ cm/s for CC(C)C[C@H]1C(=O)N[C@@H]([C@@H](C)O)C(=O)N(C)[C@@H](Cc2ccccc2)C(=O)N[C@@H](COC(C)(C)C)C(=O)N[C@H](C(=O)N2CCCCC2)CC(=O)N[C@@H](C(C)C)C(=O)N(C)CC(=O)N1C [DP-749] (V[Sar][NMeL]T[NMeF]S(tBu)D-Piperidide; lactam N-7) ?
[reply] No

[ask] Assess whether reported Papp at 18 hours, 50 µM for CC[C@H](C)[C@H]1C(=O)N[C@@H](COC(C)(C)C)C(=O)N[C@@H](C)CC(=O)N(C)[C@@H](C)C(=O)N(C)[C@@H](CC(C)C)C(=O)N(C)CC(=O)N(C)[C@@H](CC(C)C)C(=O)N[C@@H]([C@@H](C)O)C(=O)N(C)[C@@H](C)C(=O)N(C)[C@@H](CC(C)C)C(=O)N1C [DP-804] (cyclo([NMeA][NMeL][NMeI]S(tBu)[β3hA][NMeA][NMeL][Sar][NMeL]T)) sits at 50 ×10⁻⁶ cm/s or higher.
[reply] No

Continuing:
[ask] Check this compound for Papp at 18 hours, 50 µM at or above 50 ×10⁻⁶ cm/s: CC(C)C[C@H]1C(=O)N[C@@H](C)CC(=O)N(C)[C@H](C)C(=O)N(C)[C@@H](Cc2ccccc2)C(=O)N(C)[C@@H](CC(C)C)C(=O)N[C@@H]([C@@H](C)O)C(=O)N(C)CC(=O)N[C@@H](COC(C)(C)C)C(=O)N1C [DP-797] (cyclo([NMeF][NMeL]T[Sar]S(tBu)[NMeL][β3hA][dNMeA]))
[reply] No

[ask] Decide: Papp at 18 hours, 50 µM of CC[C@H](C)[C@@H]1NC(=O)[C@H](CC(C)C)N(C)C(=O)[C@H](CC(C)C)NC(=O)[C@H](Cc2ccccc2)NC(=O)[C@H]([C@@H](C)O)NC(=O)[C@H](Cc2ccccc2)NC(=O)[C@@H](C)N(C)C(=O)C[C@@H](C(=O)N2CCCCC2)NC(=O)CNC(=O)[C@H](Cc2ccccc2)NC1=O [DP-431] ([dNMeA]FTFL[NMeL]IFGD-Piperidide; lactam N-10) >= 50 ×10⁻⁶ cm/s?
[reply] No

[ask] Reported Papp at 18 hours, 50 µM reaches at least 50 ×10⁻⁶ cm/s for CC(C)C[C@H]1C(=O)N(C)[C@@H](CC(C)C)C(=O)N[C@H](C(=O)N(C)[C@@H](Cc2ccccc2)C(=O)N[C@@H](C)C(=O)N2CCCCC2)CC(=O)N(C)[C@@H](C)C(=O)N(C)[C@@H](Cc2ccccc2)C(=O)N(C)[C@@H](CC(C)C)C(=O)N[C@@H]([C@@H](C)O)C(=O)N(C)[C@@H](C)C(=O)N[C@@H](C(C)C)C(=O)N1C [DP-199] ([NMeA][NMeF][NMeL]T[NMeA]V[NMeL][NMeL]D[NMeF]A-Piperidide; lactam N-9) ?
[reply] Yes
